- assay target: MAGL (Mus musculus, UniProt O35678)
- Sequence (O35678 whole entry): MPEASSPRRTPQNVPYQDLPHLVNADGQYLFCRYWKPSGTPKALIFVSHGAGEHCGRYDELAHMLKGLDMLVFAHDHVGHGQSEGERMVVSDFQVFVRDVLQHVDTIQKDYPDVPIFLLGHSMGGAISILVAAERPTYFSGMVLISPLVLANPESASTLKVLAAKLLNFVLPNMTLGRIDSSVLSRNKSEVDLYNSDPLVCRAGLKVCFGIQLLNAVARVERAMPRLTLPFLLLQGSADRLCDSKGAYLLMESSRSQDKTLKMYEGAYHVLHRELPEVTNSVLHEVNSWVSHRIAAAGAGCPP
- assay explanation: In vitro competitive ABPP, % inhibition at fixed concentration, MAGL
- Type: biochemical
- Parameters: from tissue
Please respond with reported inhibition at 1 µM for every item in the list.

Retrieve inhibition at 1 µM on MAGL (Mus musculus, UniProt O35678); query Cn1cc(CN2CCN(C(=O)ON3C(=O)CCC3=O)CC2)c(-c2ccccc2Cl)n1
25 to 75%

Provide inhibition at 1 µM, tested on MAGL (Mus musculus, UniProt O35678), for C[C@H]1CN(Cc2ccc(N3CCOCC3)cc2C(F)(F)F)CCN1C(=O)ON1C(=O)CCC1=O .
25 to 75%

Under MAGL (Mus musculus, UniProt O35678): report inhibition at 1 µM of O=C(ON1C(=O)CCC1=O)N1CCN(Cc2ccc(N3CCCC3)cc2)CC1 .
25 to 75%

State, for MAGL (Mus musculus, UniProt O35678), measured inhibition at 1 µM of the compound listed here: CC(C)c1cc(N2CCOCC2)ccc1CN1CCN(C(=O)ON2C(=O)CCC2=O)CC1
25 to 75%

Give MAGL (Mus musculus, UniProt O35678) inhibition at 1 µM for the following compound: O=C(ON1C(=O)CCC1=O)N1CCN(Cc2ccc(-c3cccc(F)c3)cn2)CC1
25 to 75%

Provide inhibition at 1 µM, system MAGL (Mus musculus, UniProt O35678), entry Cc1ccccc1-c1ccc(CN2CCN(C(=O)ON3C(=O)CCC3=O)CC2)nc1C
25 to 75%

Determine reported inhibition at 1 µM for Cc1cccc(-c2ccc(CN3CCN(C(=O)ON4C(=O)CCC4=O)CC3)c(Oc3ccccc3)c2)c1 ; test system: MAGL (Mus musculus, UniProt O35678).
25 to 75%

Identify measured inhibition at 1 µM obtained with MAGL (Mus musculus, UniProt O35678) for CC1(C)CN(Cc2ccc(N3CCOCC3)cc2C(F)(F)F)CCN1C(=O)ON1C(=O)CCC1=O .
< 25%

Consider the compound O=C(ON1C(=O)CCC1=O)N1CCN(Cc2cc(Cl)ccc2C(=O)N2CCOCC2)CC1 tested on MAGL (Mus musculus, UniProt O35678); state its inhibition at 1 µM.
< 25%

Give inhibition at 1 µM for this entry on MAGL (Mus musculus, UniProt O35678): O=C(ON1C(=O)CCC1=O)N1CCN(Cc2ccc(Cl)cc2C(=O)N2CCC2)CC1
< 25%

State measured inhibition at 1 µM of the compound O=C(ON1C(=O)CCC1=O)N1CCN(Cc2ccc(Cl)cc2N2CCN3CCC[C@@H]3C2)CC1 with MAGL (Mus musculus, UniProt O35678).
> 75%

Under MAGL (Mus musculus, UniProt O35678), report inhibition at 1 µM for Cc1nc(-c2ccccc2F)ccc1CN1CCN(C(=O)ON2C(=O)CCC2=O)CC1
25 to 75%

Provide inhibition at 1 µM, tested on MAGL (Mus musculus, UniProt O35678), for Cc1nc(-c2cccc(F)c2)ccc1CN1CCN(C(=O)ON2C(=O)CCC2=O)CC1 .
> 75%

GET inhibition at 1 µM where system = MAGL (Mus musculus, UniProt O35678) and item = Cc1cc(CN2CCN(C(=O)ON3C(=O)CCC3=O)CC2)cc(C(=O)N2CCOCC2)c1
< 25%

Quote MAGL (Mus musculus, UniProt O35678) inhibition at 1 µM for entry CC1(C)CN(Cc2ccc(N3CCOCC3)cc2OC(F)(F)F)CCN1C(=O)ON1C(=O)CCC1=O .
< 25%

Report inhibition at 1 µM under test system MAGL (Mus musculus, UniProt O35678) for Cn1ncc2cc(C(c3ccc4c(cnn4C)c3)N3CCN(C(=O)ON4C(=O)CCC4=O)CC3)ccc21 .
25 to 75%

Name the recorded inhibition at 1 µM of O=C(ON1C(=O)CCC1=O)N1CCN(Cc2cc(C(F)(F)F)ccc2C(=O)N2CCCC2)CC1 , assay system MAGL (Mus musculus, UniProt O35678).
< 25%

Look up MAGL (Mus musculus, UniProt O35678) data: inhibition at 1 µM of COc1cc(-c2ccccc2)ccc1CN1CCN(C(=O)ON2C(=O)CCC2=O)CC1 , then report it.
> 75%

Answer with inhibition at 1 µM of CS(=O)(=O)N1CCN(c2cc(Cl)ccc2CN2CCN(C(=O)ON3C(=O)CCC3=O)CC2)CC1 measured for MAGL (Mus musculus, UniProt O35678).
25 to 75%

For MAGL (Mus musculus, UniProt O35678), give inhibition at 1 µM of the listed compound: Cc1ccc(N2CCOCC2)c(CN2CCN(C(=O)ON3C(=O)CCC3=O)CC2)c1
25 to 75%

Print MAGL (Mus musculus, UniProt O35678) inhibition at 1 µM for Cc1cc(-c2ccc(CN3CCN(C(=O)ON4C(=O)CCC4=O)CC3)c(F)c2)cc(C)n1 .
25 to 75%
